Values compiled from patent US4347371A.

- Tested on: Aldose reductase (Rattus norvegicus, UniProt P07943)
- Construct: Aldose reductase is purified from rat lenses; from tissue; host or cells: rat lens
- Assay overview: Inhibitory activity against aldose reductase purified from rat lenses (absorbance at 340 nm)
- Type: biochemical
- Condition notes: pH 6.2, DL-glyceraldehyde 4×10^-4 M, NADPH 5×10^-5 M; read-out: IC50 (molar concentration producing 50% inhibition of aldose reductase)
Measurement label: IC50 (nM)

Use the examples below as a reference point.
| Molecule | Observed |
| --- | --- |
| O=C(O)[C@@H]1CSC(c2ccccc2O)N1C(=O)CCSSCCC(=O)N1C(c2ccccc2O)SC[C@H]1C(=O)O (stereo partly shown) | 97 |
| Cc1ccc(C2SC[C@@H](C(=O)O)N2C(=O)[C@H](C)CSSC[C@@H](C)C(=O)N2C(c3ccc(C)cc3)SC[C@H]2C(=O)O)cc1 (stereo partly shown) | 450 |
| O=C(O)[C@@H]1CSC(c2ccccc2O)N1C(=O)CSSCC(=O)N1C(c2ccccc2O)SC[C@H]1C(=O)O (stereo partly shown) | 310 |

P. CCCSSCCC(=O)N1C(c2ccccc2O)SC[C@H]1C(=O)O (stereo partly shown)
Q. O=C(O)CCSSCCC(=O)N1C(c2ccccc2O)SC[C@H]1C(=O)O (stereo partly shown)
// which entry reports the smaller IC50, P or Q ? I would appreciate it if you answered with the label of your choice. Q

I. C[C@H](CSSC[C@@H](C)C(=O)N1C(c2ccccc2O)SC[C@H]1C(=O)O)C(=O)N1C(c2ccccc2O)SC[C@H]1C(=O)O (stereo partly shown)
II. C[C@H](CSSC[C@@H](C)C(=O)N1C(c2cccc3ccccc23)SC[C@H]1C(=O)O)C(=O)N1C(c2cccc3ccccc23)SC[C@H]1C(=O)O (stereo partly shown)
// which entry reports the smaller IC50, I or II ? I would appreciate it if you answered with the label of your choice. I

====

- Assay overview: Acute toxicity test in mice, oral
- Set-up: species or system male ddy-std. strain mice
- Condition notes: mouse, in vivo, male ddy-std. mice, 0.5% tragacanth suspension
Measurement label: LD50 (mg/kg)
Just the number please, in mg/kg, no unit attached.

# input molecule: O=C(O)[C@@H]1CSC(c2ccccc2O)N1C(=O)CCSSCCC(=O)N1C(c2ccccc2O)SC[C@H]1C(=O)O (stereo partly shown) ; wanted: its LD50 15000

====

- Tested on: Aldose reductase (Rattus norvegicus, UniProt P07943)
- Construct: Aldose reductase is purified from rat lenses; from tissue; host or cells: rat lens
- Assay overview: Inhibitory activity against aldose reductase purified from rat lenses (absorbance at 340 nm)
- Assay type: biochemical
Measurement label: pIC50
Hey, just a heads up that pIC50 is the negative log base 10 of the concentration in molar.

# input compound: C[C@@H]1O[C@@H](Oc2c(-c3ccc(O)c(O)c3)oc3cc(O)cc(O)c3c2=O)[C@H](O)[C@H](O)[C@H]1O [Control, Quercitrin, reference compound] ; wanted: its pIC50 7.05
